- assay.summary: yeast display, Sf9 membrane polyspecificity reagent, FACS + sequencing; frameworks hold sequencing errors
recorded.endpoint: polyreactivity (PSR sort gate)

These solved cases illustrate the format of a correct answer.
| chain | recorded.endpoint | reading |
| --- | --- | --- |
| QVQLVESGGGLVQAGGSLRLSCAASGRTFSYYAMGWYRQAPGKEREFVAAISSTGTSTYYADSVKGRFTISRDTAKNTVYLQKNSLKPEDTAVYYCNARLATYRLHSKFYYWGQGTQVTVSS | polyreactivity (PSR sort gate) | high polyreactivity |
| QVQLVESGGGLVQAGGSLRLSCAASGSTFYFYAMGWYRQAPGKEREFVARISNRDGSTYYADSVKGRFTISRDNAKNTVYLQMNSLKPEDTAVYYCAVKQRASHYPYYSWGQGTQVTVSS | polyreactivity (PSR sort gate) | high polyreactivity |
| QVQLVESGGGLVQAGGSHRLSCAASGSTFTGYAMACYRQAPGKEREFVAGNTGSGGSTYYADSVKGRFTISRDIAKNSVYFQMISLKPEDTAVYYCAASFWYHYVWLDYYWGQGTQVTVSS | polyreactivity (PSR sort gate) | low polyreactivity |
| QVQLVESGGGLVQAGGSLRLSCAASGRIFPKYAMGWYRQAPGKERELVAGITKRVGSTYYADSVKGRFTISRDNAKNTVYLQMNSLKPEDTAVYYCAKRWVSRTHGYWGQGTQVTVSS | polyreactivity (PSR sort gate) | low polyreactivity |
| QVQLQESGGGLVQAGGSLRLSCAASGYISHADEMGWYRQAPGKEHELVASISNGGSTNYADSVKGRFTISRDNAKNTVYQQMNSLKSEYTAVYYCAALTGQVDIHYYWCQGTQVTVSS | polyreactivity (PSR sort gate) | low polyreactivity |
| QVQLVESGGGLVQAGGSLRLSCAASGSIFTWYAMGWYRQAPGKERELVARINVSAGITYYADSVKGRFTISRDNAKNTVYLQMNSLKPEDTAVYYCAATGWRRPKHNYWGQGTQVTVSS | polyreactivity (PSR sort gate) | low polyreactivity |
| QVQLVESGGGLVQAGGSLRLSCAASGSTFARNVMGWYRQAPGKERELVAAISWRGGRTYYADSVKGRFTISRDNAKNTVYLQMNSLKPEDTAVYYCAAGRSFRGSYWYEYWGQGTKVTVSS | polyreactivity (PSR sort gate) | high polyreactivity |
| QVQLVESGGGLVQAGVSLLLSCAATGIIFSYYAMGWYRQAPGKERELVAAISWNSGSTYYADSVKGRFTISRDNAKNTVYLQMNSLKPEDTAVYYCAAESYYSYSYYRPYEYYYWGQGNQVTVSS | polyreactivity (PSR sort gate) | high polyreactivity |

Name the reported polyreactivity (PSR sort gate) value associated with the sequence `QVQLVETGGGLVQAGGSRRVSCAASGFIFWWYPMGWYRQSPGKERELVAAISGRGGSTYYADSVKRRFTISRDNAKNTVYLQMNSQKPEDTAVYYCAARLPWSYYRTQGYNYGGQGTQVTVSS`
high polyreactivity

What value of measured polyreactivity (PSR sort gate) is listed for `QVQLVESGGGLVQAGGSLRLSCAASGRIFFLYAMAWYRQAPGKEREFVAAISSSGGSTYYADSVKGRFTISRDNAKNTVYLKMNSLKPEDTAVYYCNADATWSGYIVSYDYWGQGTQVTVSS` ?
low polyreactivity

# lookup: polyreactivity (PSR sort gate) of `QVQLVESGVGLVQARGSLRLSCAASGSIFRRNAMGWYRQAHGKERELVAAISASGGRTYADSVKGRFTISRDNSKNTVYFQMKSLNPEDKAVYYCAARCYCSSRFDYWGLGTQVTVSS`
high polyreactivity

What value of polyreactivity (PSR sort gate) has been recorded for this entry: `QVQLVESGGGLVQAGGSLRLSCAASGSTFGTYAMGWYRQAPGKERELVAAISSGDSTTYADSVKGRFTISRDNAKNTVYLQMNSLKPEDTAVYYCAARVPYKSDYWGQGTQVTVSS`
low polyreactivity

What does the data say about its polyreactivity (PSR sort gate)? Entry: `QVQLVESGGGLVQAGGSLRLSCAASGRIFRVNAMGWYRQAPGKERELVAAISWIGGRTYYADSVKGRFTISRDNAKNTVYLQMNSQKPEDTAVYYCAAVGSSSTHWASRSYRYNYWGQGTQVTVSS`
high polyreactivity

Tell me the measured polyreactivity (PSR sort gate) of `QVQLVESGGGLVQAGGSLRLSCAASGFIFSYYTMGWYRQAPGKERELVAAISRNGGSTYYADSVKGRFTISRDNAKNTVYLQMNSLKPEDTAVYYCAKRVFNYQRYDYWGQGTQVTVSS` , please.
high polyreactivity

###

- assay.summary: yeast display, Sf9 membrane polyspecificity reagent, FACS + sequencing; frameworks hold sequencing errors
recorded.endpoint: polyreactivity (PSR sort gate)

Example entries begin here.
| chain | polyreactivity (PSR sort gate) |
| --- | --- |
| QVQLVESGGGLVQAGGSLRLSCAASGSTFAFYAMGWYRQAPGKERELVAAINLGGGSTYYADSVKGRFTISRDNAKNTVYLQMNSLKPEDTAVYYCAADFWTFSWPVFDTYVYWGQGTQVTVSS | low polyreactivity |
| QVQLVESGGGLVQAGGSLRLSCAASGSTFVQYAKGWSRQAPGKERELVATISKSGGDTYADSVKGRFTISRDNAKNTVYLQMNSLKPEDTAVYYCAAGYTWVSHRYRYAYNYWGQGTQVTVSS | low polyreactivity |
| QVQLVESGGGLVQAGGSLRLSCAASGSTFRYYVMGWYRQAPRKERELVAGISYRGGTTYYADSVKGRFSISRDNAKNTVYLQMNSLKPEDTAVYYCAADSTPYVLSGNYDYWGQGPQVTVSS | low polyreactivity |
| QVQLVESGGGLVQAGGSLRLSCAASGSIFKYNAMGWYRQAPGKERELVAAITIGGRTYYADSVKGRFTISRDNAKNTVYLQMNSLKPEDTAVYYCAGVVRALTIKYGYWGQGTQVTVSS | high polyreactivity |
| QVQLVESGGGLVQAGGSLRLSCAASGRIFRSNAIGWYRQAPGKERELVSVITWCGGSTYYADSVKGRFTITRDTAKNTVYIQMNSLKPEDTAVYYCAKRRAAVNGRSYYYYWGQGTQVTVSS | high polyreactivity |
| QVQLVESGGGLVQAGGSLRLSCAASGSNFKTYVMGWSRQAPGKERELVAAITSSGGRTYYADSVKGRFTISRDNAKNSVYLQMNSLKPEDTAVYYCNTAPRWVGRNDYWGQGTQVTVSS | high polyreactivity |

Requested read-out: polyreactivity (PSR sort gate). Entry: `QVKLVESGGGLVQAGGSLRLSCAASGSIFWGYDMGWYRQAPGKERELVARISYSGGSTSYADSVKGRFTISRDNAKNTVYLQMNSLKPEDTAVFYCAADEGGFWWTYPYDSLGQGTQVTVSS`
low polyreactivity

For the sequence shown here, `QVQIEESGGGLVQAGGSLRLSCAASGSTFGINAMGWSRQAPGKERELVAAISSRGGSTYYADSVKGRFTISRDNAQNTVYLQMNSLKPADTALYSCNRRGWSRTHQYDYWGQGTQVTVSS` , give the reported polyreactivity (PSR sort gate).
high polyreactivity

# lookup: polyreactivity (PSR sort gate) of `QVQLVESGGGLFQAGRSLRLSCAASGRIFVANAMGWYRQAPGIERELVAAISGRGSRTYYADSVKGRFTISRDNAKNTVYLQMNSLKPEDTAVYYCAARYRYDGRYDYWGQGTQVTVSS`
high polyreactivity

What value of measured polyreactivity (PSR sort gate) is listed for `QVQLVESGGGIVQAGGSLRLTCAASGSIFVNNAIGWYIQAPGKERELVADIRRSGGNTYYADSVKGRFTISRDNAKNTVYLQMNSLKPEDTAVYYCNVVRRADSIRAKSRDYWGQGTQVTVSS` ?
high polyreactivity

Form field: reported polyreactivity (PSR sort gate) of `QVQIVESGGGLVQAGGSLRLSCAASGITFYGYAMGWYRQAPGKERELVAVITSSRSSTYYADSVKGRFTISRDNAKNTFFLQMNSLKPEDTEVYYCNPRPGRRSLRSRTYDYWGQGTQVTVSS`
high polyreactivity

Entry under review: `QVQLVESGGGLVQAGGSLRISCDASGSTFSRYTLGWYRQAPVKEREMVAAISYRGGSTYYADSVKGRFTISRDNAKNTVYLQMNSLKPEDSAVYYCNADVPRIPYPDMEYWGQGTQVTVSS` . Reported polyreactivity (PSR sort gate)?
low polyreactivity

# query: polyreactivity (PSR sort gate) of entry `QVQLVESGGGLVQAGGSLRLICAASGRPFTYNMGWYRQAPGKERELVAANDLRRLCEGALHNFTRQCEEYRLFTDVQPETGRYPVYYCNADPAWIWYTFDYWGQGTQVTVSS`
low polyreactivity

###

- assay.summary: yeast display, Sf9 membrane polyspecificity reagent, FACS + sequencing; frameworks hold sequencing errors
recorded.endpoint: polyreactivity (PSR sort gate)

Examples from the recorded data:
| chain | polyreactivity (PSR sort gate) |
| --- | --- |
| QVQLVESGGGLVQAGGSLSLICAASGRIFLRNDMGWYRQAPGKERELVAGISSDGSTYYADSVKGRFTISRDNAKNTVYLQMNSLKPEDTAVYYCAAERWGNPTDYQFWRPYDYWGQGTQVNVSS | low polyreactivity |
| QVQLEESGGGLVQAGGSLRLSCAASGRIFGSYAMGWYRQAAGNERELVAAITRSGGSTYYADSVKGRFTISRDNAKNTVYLQMNSLTPEDTAVYYCAAYFRFSGSAKFGYWGQGTQVTVSS | high polyreactivity |
| QDQLVESGGGLVQAGGSLRLSCAASGRTFVHYVMGWYRQAPGKERELVAAITSSGGSTYADSVKGRFTISRDNAKNTVYLQMNSLKPEDTAVYYCAADYLDGVGDVEHDYWGQGTQVTVSS | low polyreactivity |
| QVQLVESGGGLVQAGGSLRLSCAASGITITTYAMGWYRQAPGKERELVAAISSASSTYYADSVKGRFTISRDNAKNTVYLQMNSLKPEDTAVYYCAARVFKKYRPSGRYYYWGQGTQVTVSS | high polyreactivity |

Sample `QVQLVETGGGLFQAGGSLRISCAASGFIFTLYAMGWYRQAPGKERELVAAINSGGSTDYADSVKGRFTISRDNAKNTVYLQMNSLKPEDTAVYYCAAGNTYAGSDYWGQGTQVTVSS` — what was its polyreactivity (PSR sort gate)?
low polyreactivity
